System: Recombinant ROCK2 (amino acids 5-554) (Homo sapiens)
Construct: ROCK2 (amino acids 5-554); by word order, ROCK2 from SignalChem
Sequence (O75116 5-554): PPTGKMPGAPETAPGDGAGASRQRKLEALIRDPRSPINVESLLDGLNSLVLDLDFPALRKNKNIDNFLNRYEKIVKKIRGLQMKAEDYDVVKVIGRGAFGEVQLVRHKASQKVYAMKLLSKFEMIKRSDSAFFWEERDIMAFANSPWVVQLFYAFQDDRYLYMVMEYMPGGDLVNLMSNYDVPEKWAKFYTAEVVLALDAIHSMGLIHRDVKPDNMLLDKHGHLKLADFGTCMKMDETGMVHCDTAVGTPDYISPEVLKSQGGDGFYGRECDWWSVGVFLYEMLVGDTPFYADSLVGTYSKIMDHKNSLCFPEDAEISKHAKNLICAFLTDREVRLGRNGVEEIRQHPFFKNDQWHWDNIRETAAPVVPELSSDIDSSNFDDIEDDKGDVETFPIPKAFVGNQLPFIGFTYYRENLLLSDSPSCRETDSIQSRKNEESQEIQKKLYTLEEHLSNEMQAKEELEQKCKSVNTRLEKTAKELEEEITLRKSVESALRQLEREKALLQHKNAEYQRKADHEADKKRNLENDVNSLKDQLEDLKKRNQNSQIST
Assay Explanation: ROCK inhibition assay, LANCE Ultra TR-FRET kinase assay (ROCK2)
Condition Parameters: 4 μM ATP, 50 nM ULight-CREBtide substrate
Experimental: Kinase IC50 was determined through an in vitro assay based on LANCE Ultra TR-FRET (Time-Resolved Fluorescence Resonance Energy Transfer) homogeneous technologies method (Perkin Elmer). […] Compound activities were measured by Envision and IC50s were calculated. […] The reaction was incubated for 1 hour, and the signal was read in Envision in TR-FRET mode (excitation at 320 nm and emission at 615/665 nm). […]
Quantity Name: IC50

Answered examples (8):
// molecule Cc1nocc1-c1ccc2c(=O)n(Cc3cccc(C(=O)N[C@H]4C[C@@H](O)C4)c3)ccc2c1 , assay Recombinant ROCK2 (amino acids 5-554) (Homo sapiens), IC50 value: 10 to 100 nM

// molecule CNC(=O)c1cccc(Cn2ccc3cc(-c4cn[nH]c4)ccc3c2=O)c1 , assay Recombinant ROCK2 (amino acids 5-554) (Homo sapiens), IC50 value: < 10 nM

// molecule CNC(=O)c1cccc(Cn2ccc3cc(-c4cc[nH]c4C)ccc3c2=O)c1 , assay Recombinant ROCK2 (amino acids 5-554) (Homo sapiens), IC50 value: 100 to 500 nM

// molecule CNC(=O)c1cc(F)cc(C(C)n2ccc3cc(-c4cn[nH]c4Cl)ccc3c2=O)c1 (centres unmarked) , assay Recombinant ROCK2 (amino acids 5-554) (Homo sapiens), IC50 value: < 10 nM

// molecule CNC(=O)c1cccc(Cn2ccc3cc(-c4cn[nH]c4Br)ccc3c2=O)c1 , assay Recombinant ROCK2 (amino acids 5-554) (Homo sapiens), IC50 value: < 10 nM

// molecule CNC(=O)c1cccc(Cn2ccc3cc(-c4c[nH]nc4Cl)ncc3c2=O)c1 , assay Recombinant ROCK2 (amino acids 5-554) (Homo sapiens), IC50 value: < 10 nM

// molecule CC(O)c1cn(Cc2cccc(C(=O)NC3COC3)c2)c(=O)c2ccc(-c3c[nH]nc3C(F)(F)F)cc12 (centres unmarked) , assay Recombinant ROCK2 (amino acids 5-554) (Homo sapiens), IC50 value: < 10 nM

// molecule O=C(NCc1ccncc1)c1cccc(Cn2cnc3cc(-c4cn[nH]c4C(F)(F)F)ccc3c2=O)c1 , assay Recombinant ROCK2 (amino acids 5-554) (Homo sapiens), IC50 value: < 10 nM

Next:
// molecule CC(=O)Nc1cccc(Cn2ccc3cc(-c4cn[nH]c4)ccc3c2=O)c1 , assay Recombinant ROCK2 (amino acids 5-554) (Homo sapiens), IC50 value: 10 to 100 nM

// molecule CN(C)CCNC(=O)c1cccc(Cn2cnc3cc(-c4cn[nH]c4C(F)F)ccc3c2=O)c1 , assay Recombinant ROCK2 (amino acids 5-554) (Homo sapiens), IC50 value: 10 to 100 nM

// molecule COc1cccc(C(CO)n2cnc3cc(-c4cn[nH]c4C)ccc3c2=O)c1 (centres unmarked) , assay Recombinant ROCK2 (amino acids 5-554) (Homo sapiens), IC50 value: 10 to 100 nM

// molecule CNC(=O)c1cccc(Cn2ccc3cc(-c4ccnc(N)c4)ncc3c2=O)c1 , assay Recombinant ROCK2 (amino acids 5-554) (Homo sapiens), IC50 value: 10 to 100 nM

// molecule Cc1nocc1-c1ccc2c(=O)n(Cc3cccc(C(=O)NCCN4CCOCC4)c3)ccc2c1 , assay Recombinant ROCK2 (amino acids 5-554) (Homo sapiens), IC50 value: 10 to 100 nM

// molecule Cc1nocc1-c1ccc2c(=O)n([C@H](C)c3cccc(C(=O)NCC(F)(F)F)c3)cnc2c1 , assay Recombinant ROCK2 (amino acids 5-554) (Homo sapiens), IC50 value: < 10 nM

// molecule [2H]C([2H])([2H])NC(=O)c1cccc(Cn2ccc3cc(-c4cn[nH]c4Cl)ccc3c2=O)c1 , assay Recombinant ROCK2 (amino acids 5-554) (Homo sapiens), IC50 value: < 10 nM
